- protocol.summary: Human liver microsome (HLM) metabolic stability assay
- Format: in vitro ADME
- particulars: human liver microsomes
measurement.kind: Metabolic stability (Qh %), % hepatic blood flow

[
  {
    "compound": "CO[C@@H]1CN(c2cccc(-c3cccc(C)c3OCc3ccc4c(c3)C(C)(C)CN(C3COC3)CC4)n2)CC[C@@H]1C(=O)O [Compound 326]",
    "endpoint.result": "59%"
  },
  {
    "compound": "O=C(O)[C@@]12CCN(c3cccc(-c4ccccc4OCc4ccc5c(c4)CCN(C4COC4)C5)n3)C[C@@H]1C2 [Compound 2]",
    "endpoint.result": "<24%"
  },
  {
    "compound": "COc1cc(COc2ccc(C)cc2-c2cccc(N3CC[C@H](C(=O)O)[C@H](OC)C3)n2)cc2c1CN(C1CCOCC1)CC2 [Compound 80]",
    "endpoint.result": "<24%"
  },
  {
    "compound": "Cc1cccc(-c2cccc(N3CC[C@H](C(=O)O)[C@@H]4OCCC[C@H]43)n2)c1OCc1ccc2c(c1C)CCN(C1CCOCC1)CC2 [Compound 337]",
    "endpoint.result": "<24%"
  },
  {
    "compound": "COc1cc(COc2ccc(C)cc2-c2csc(N3CC[C@@H](C(=O)O)[C@@H](OC)C3)n2)cc2c1CN(C1CCOCC1)CC2 [Compound 254]",
    "endpoint.result": "26%"
  },
  {
    "compound": "CCO[C@@H]1CN(c2nc(-c3cccc(C)c3OCc3cc(F)c4c(c3)CCN(C3CCOCC3)C4)cs2)CC[C@@H]1C(=O)O [Compound 238]",
    "endpoint.result": "<24%"
  },
  {
    "compound": "CO[C@@H]1CN(c2nc(-c3cccc(C)c3OCc3ccc4c(c3C)CCN(C3COC3)C4)cs2)CC[C@@H]1C(=O)O [Compound 174]",
    "endpoint.result": "<24%"
  },
  {
    "compound": "Cc1ccc(OCc2ccc3c(c2C)CCN(C2CCOCC2)CC3)c(-c2csc(N3CC[C@@]4(C(=O)O)C[C@H]4C3)n2)c1 [Compound 130]",
    "endpoint.result": "<24%"
  }
]

### Prompt # Metabolic stability (Qh %), % hepatic blood flow lookup, item CO[C@H]1CN(c2cccc(-c3cc(C)ccc3OCc3ccc4c(c3)CCN(C3CCOCC3)C4)n2)CC[C@H]1C(=O)O [Compound 70]
### Response <24%

### Prompt # Metabolic stability (Qh %), % hepatic blood flow lookup, item COc1cc(COc2c(C)cccc2-c2csc(N3CC[C@@H](C(=O)O)[C@@H](OC)C3)n2)cc2c1CN(C1CCOCC1)CC2 [Compound 171]
### Response <24%

### Prompt # Metabolic stability (Qh %), % hepatic blood flow lookup, item CCc1cc(COc2c(C)cccc2-c2cccc(N3C[C@@H]4C[C@]4(C(=O)O)[C@H]3COC)n2)cc2c1CN(CC1COCCO1)CC2 (stereo partly shown) [Compound 56]
### Response <24%

### Prompt # Metabolic stability (Qh %), % hepatic blood flow lookup, item CO[C@@H]1CN(c2cccc(-c3cc(C)ccc3OCc3ccc4c(c3)CCN(C3CCOCC3)C4)n2)CC[C@@H]1C(=O)O [Compound 74]
### Response <24%

### Prompt # Metabolic stability (Qh %), % hepatic blood flow lookup, item Cc1cc(COc2c(C)cccc2-c2csc(N3CC[C@@]4(C(=O)O)C[C@H]4C3)n2)cc2c1CN(CC1COCCO1)CC2 (stereo partly shown) [Compound 91]
### Response <24%

### Prompt # Metabolic stability (Qh %), % hepatic blood flow lookup, item CCO[C@@H]1CN(c2nc(-c3cccc(C)c3OCc3cc4c(c(OC)c3)CN(C3CCOCC3)CC4)cs2)CC[C@@H]1C(=O)O [Compound 228]
### Response <24%

### Prompt # Metabolic stability (Qh %), % hepatic blood flow lookup, item COC[C@H]1N(c2cccc(-c3cccc(C)c3OCc3ccc4c(c3F)CCN(C3CCOCC3)CC4)n2)C[C@@H]2C[C@@]21C(=O)O [Compound 262]
### Response 25%

### Prompt # Metabolic stability (Qh %), % hepatic blood flow lookup, item Cc1ccc(OCc2cnc3c(c2)CCN(C2CCOCC2)C3)c(-c2csc(N3CC[C@@]4(C(=O)O)C[C@H]4C3)n2)c1 [Compound 194]
### Response <24%

====

- protocol.summary: Human liver microsome (HLM) metabolic stability assay
- Assay type: in vitro ADME
- particulars: human liver microsomes
Metabolic stability (Qh %), % hepatic blood flow: recorded values

Examples with their reported Metabolic stability (Qh %), % hepatic blood flow follow.
[
  {
    "compound": "COc1cc(COc2c(C)cccc2-c2csc(N3CC[C@@H](C(=O)O)[C@@H](OC)C3)n2)cc2c1CN([C@@H]1CCOC1)CC2",
    "endpoint.result": "<24%"
  },
  {
    "compound": "Cc1cccc(-c2csc(N3CC[C@@]4(C(=O)O)C[C@H]4C3)n2)c1OCc1ccc2c(c1C)CCN(C1CCOC1)CC2 (some centres unmarked)",
    "endpoint.result": "39%"
  },
  {
    "compound": "Cc1cccc(-c2cccc(N3C[C@@H]4C[C@]4(C(=O)O)C3)n2)c1OCc1ccc2c(c1)CCN(C1COC1)CC2",
    "endpoint.result": "<24%"
  },
  {
    "compound": "Cc1cc(COc2c(C)cccc2-c2csc(N3C[C@H]4C[C@@]4(C(=O)O)[C@@H]3C)n2)cc2c1CN(C1COC1)CC2",
    "endpoint.result": "<24%"
  },
  {
    "compound": "Cc1ccc(OCc2ccc3c(c2C)CCN(C2CCOCC2)CC3)c(-c2csc(N3C[C@@H]4C[C@]4(C(=O)O)C3)n2)c1",
    "endpoint.result": "<24%"
  },
  {
    "compound": "CCO[C@H]1CN(c2cccc(-c3cccc(Cl)c3OCc3cc4c(c(OC)c3)CN(C3CCOCC3)CC4)n2)CC[C@H]1C(=O)O",
    "endpoint.result": "85%"
  },
  {
    "compound": "COC[C@H]1N(c2cccc(-c3cccc(C(F)(F)F)c3OCc3cc(C)c4c(c3)CCN(C3CCOCC3)C4)n2)C[C@@H]2C[C@@]21C(=O)O",
    "endpoint.result": "34%"
  }
]

### Prompt # Metabolic stability (Qh %), % hepatic blood flow lookup, item `Cc1ccc(OCc2ccc3c(c2)CCN(C2CCOCC2)C3)c(-c2csc(N3CC[C@@]4(C(=O)O)C[C@H]4C3)n2)c1`
### Response <24%

====

- subject.of.test: human soluble guanylate cyclase alpha 1 and beta 1 subunits (sGC) (Homo sapiens (Human), UniProt Q02108+Q02153)
- Sequence (Q02108 whole entry partner): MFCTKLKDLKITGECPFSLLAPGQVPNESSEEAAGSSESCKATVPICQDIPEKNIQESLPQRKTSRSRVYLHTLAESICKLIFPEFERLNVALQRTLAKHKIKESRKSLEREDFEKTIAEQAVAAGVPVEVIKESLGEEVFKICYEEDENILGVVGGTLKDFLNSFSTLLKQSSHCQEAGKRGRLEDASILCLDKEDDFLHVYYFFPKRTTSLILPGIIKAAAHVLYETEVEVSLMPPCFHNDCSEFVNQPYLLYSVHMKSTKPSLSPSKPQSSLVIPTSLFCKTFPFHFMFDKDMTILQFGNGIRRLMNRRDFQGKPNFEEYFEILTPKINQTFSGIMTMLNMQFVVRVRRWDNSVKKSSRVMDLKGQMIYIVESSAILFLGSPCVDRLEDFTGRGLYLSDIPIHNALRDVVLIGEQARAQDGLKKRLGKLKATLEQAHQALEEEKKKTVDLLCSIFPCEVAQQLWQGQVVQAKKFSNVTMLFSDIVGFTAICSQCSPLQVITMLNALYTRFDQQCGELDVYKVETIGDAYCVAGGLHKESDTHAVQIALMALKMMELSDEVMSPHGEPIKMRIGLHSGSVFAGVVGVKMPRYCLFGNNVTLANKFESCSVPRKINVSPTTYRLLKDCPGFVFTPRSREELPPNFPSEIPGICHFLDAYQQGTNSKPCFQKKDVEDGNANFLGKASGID
- Sequence (Q02153 whole entry): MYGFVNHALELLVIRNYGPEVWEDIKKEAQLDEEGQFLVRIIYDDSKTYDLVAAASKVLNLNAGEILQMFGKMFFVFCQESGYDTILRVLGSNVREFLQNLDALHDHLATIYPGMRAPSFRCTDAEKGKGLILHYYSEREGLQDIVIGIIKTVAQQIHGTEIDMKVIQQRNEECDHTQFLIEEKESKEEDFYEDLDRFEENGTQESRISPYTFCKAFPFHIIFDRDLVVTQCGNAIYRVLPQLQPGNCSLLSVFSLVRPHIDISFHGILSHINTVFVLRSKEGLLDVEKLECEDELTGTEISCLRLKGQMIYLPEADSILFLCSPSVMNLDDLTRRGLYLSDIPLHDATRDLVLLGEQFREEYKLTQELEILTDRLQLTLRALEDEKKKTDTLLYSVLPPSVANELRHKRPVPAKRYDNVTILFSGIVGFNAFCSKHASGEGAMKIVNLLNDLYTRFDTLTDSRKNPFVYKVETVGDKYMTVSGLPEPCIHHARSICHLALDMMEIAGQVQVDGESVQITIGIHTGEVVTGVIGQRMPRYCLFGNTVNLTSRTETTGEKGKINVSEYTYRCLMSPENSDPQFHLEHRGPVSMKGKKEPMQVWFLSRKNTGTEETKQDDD
- protocol.summary: sGC cellular activator assay (cGMP, HTRF), in the presence and absence of 50% human serum
- particulars: CHO cells stably expressing human sGC alpha 1/beta 1, preincubated with 40 microM ODQ; cGMP by HTRF; Table 2 does not state whether with or without 50% human serum
measurement.kind: EC50 (nM)
Numeric only. Scale: nM

[
  {
    "molecule": "Cc1cc(C)c(OCc2ccc3c(c2C)CCN(C2CCOCC2)C3)c(-c2csc(N3C[C@@H]4C[C@]4(C(=O)O)C3)n2)c1 [Compound 152]",
    "endpoint.result": 71
  },
  {
    "molecule": "CO[C@H]1CN(c2cccc(-c3cccc(C)c3OCc3ccc4c(c3F)CCN(C3COC3)CC4)n2)CC[C@H]1C(=O)O [Compound 278]",
    "endpoint.result": 6
  }
]

Next molecule, EC50 to be filled in.
### Prompt # EC50 lookup, item Cc1cc(COc2c(C)cccc2-c2ccnc(N3C[C@@H]4C[C@]4(C(=O)O)C3)n2)cc2c1CN(C1CCOCC1)CC2 [Compound 190]
### Response 17

====

- protocol.summary: Human liver microsome (HLM) metabolic stability assay
- Type: in vitro ADME
- particulars: human liver microsomes
- Method: The 5 time point, high-throughput human liver microsome (HLM) metabolic stability assay is designed to determine in vitro compound metabolism. Compounds are incubated with HLMs at a concentration of 1 uM, at 37° C., for a total of 60 min. The percent of compound remaining at 5, 15, 30, and 60 min is used to calculate the t1/2 (min), CLint (mL/min/kg), CLh (mL/min/kg), and % Qh. […] The plates are analyzed using LC/MS/MS with electron spray ionization (ESI) and the previously determined MRM transitions. […]
measurement.kind: Metabolic stability (Qh %), % hepatic blood flow

Examples with their reported Metabolic stability (Qh %), % hepatic blood flow follow.
[
  {
    "molecule": "Cc1ccc(OCc2ccc3c(c2C)CCN(C2COC2)C3)c(-c2cccc(N3CC[C@@]4(C(=O)O)C[C@H]4C3)n2)c1",
    "endpoint.result": "63%"
  },
  {
    "molecule": "Cc1ccc(OCc2ccc3c(c2C)CCN(C2CCOC2)CC3)c(-c2csc(N3CC[C@@]4(C(=O)O)C[C@H]4C3)n2)c1 (stereo partly drawn)",
    "endpoint.result": "43%"
  }
]

Next molecule, Metabolic stability (Qh %), % hepatic blood flow to be filled in.
### Prompt # Metabolic stability (Qh %), % hepatic blood flow lookup, item `Cc1cccc(-c2csc(N3C[C@H]4C[C@@]4(C(=O)O)[C@@H]3C)n2)c1OCc1ccc2c(c1C)CCN(C1CCOCC1)C2`
### Response <24%
